Target: 26S proteasome non-ATPase regulatory subunit 14 (Homo sapiens, UniProt O00487)
Sequence (O00487 whole entry): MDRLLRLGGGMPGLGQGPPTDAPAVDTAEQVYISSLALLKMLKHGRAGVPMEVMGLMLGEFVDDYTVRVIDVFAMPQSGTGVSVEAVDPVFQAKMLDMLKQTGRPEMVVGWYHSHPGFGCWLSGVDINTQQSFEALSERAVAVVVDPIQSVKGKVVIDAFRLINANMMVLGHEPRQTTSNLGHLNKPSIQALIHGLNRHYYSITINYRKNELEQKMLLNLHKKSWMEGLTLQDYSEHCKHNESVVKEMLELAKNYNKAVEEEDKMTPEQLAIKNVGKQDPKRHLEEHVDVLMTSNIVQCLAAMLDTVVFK
Experiment: inhibition of proteasome subunit RPN11 – biochemical, fluorescence polarization, uHTS hits, confirmation (AID 602368)
Format: functional
Active and inactive are the calls of the source. No rule for the calls is given here.
property_label: IC50

structure_smiles	recorded_value
O=C(O)CCCN1C(=O)/C(=C\c2ccc(-c3nc4ccccc4s3)o2)SC1=S	5.31 µM (active)
COC(=O)c1ccccc1NC(=O)CCS(=O)(=O)c1ccc(Br)cc1	14 µM (active)
COc1cc(Cl)cc(/C=N\NC(=O)c2ccc3c(c2)OCO3)c1O	21.5 µM (active)
Cc1ccc(C(=O)Nc2ccc(C(=O)N/N=C/c3cccnc3)cc2)cc1	30.5 µM (active)
N=C1/C(=C\c2ccc(-c3cccc(C(=O)O)c3)o2)C(=O)N=C2SC=C(c3ccccc3)N12	7.84 µM (active)
COc1ccc(C#Cc2ccc3c(c2)O[C@@H](CN(C)C(=O)Nc2cccc(OC)c2)[C@H](C)CN([C@@H](C)CO)S3(=O)=O)cc1	30.5 µM (active)
